Target: Cellular tumor antigen p53 (Homo sapiens)
Assay: Primary qHTS for small molecule compounds that upregulate eGFP-tagged delta133p53alpha (in N-terminal) cells. (AID 2060322);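 note: cells pre-induced with doxycycline then dosed without doxycycline; 0% = DMSO vehicle and 100% = reference activator; nearly all actives have a fitted effect of over 75% in size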
Details: NCI-H358 eGFP-delta133p53alpha fluorescence, 24 h; active compounds read high
Results filed as inconclusive are left out.
METRIC: activation (%)
Number only, in %; omit the unit.

Observe how each entry below is paired with its result.
{"MOLECULE": "OC[C@H]1O[C@@H](O[C@H]2[C@H](O)[C@@H](CO)O[C@@H](OCc3ccccc3)[C@@H]2O[C@@H]2OC[C@](O)(CO)[C@H]2O)[C@H](O)[C@@H](O)[C@@H]1O", "activation (%)": -11.5}
{"MOLECULE": "CCC(=O)c1cc(-c2ccc(Cl)cc2)n(-c2ccc(S(N)(=O)=O)cc2)c1C", "activation (%)": 0.955}
{"MOLECULE": "Oc1cc2c(c(Cl)c1O)CCNCC2c1ccccc1 (centres undefined)", "activation (%)": -28}

# next molecule below
Known value: Cellular tumor antigen p53 (Homo sapiens) activation of the molecule C/C=C/C=C/C(=O)N1CC[C@]23c4ccccc4N[C@H]4N(C)c5cccc6c5[C@@]42CCN([C@H]6C2OC2(C)C)[C@H]13 (some centres undefined) equals 15.3

* * *

Target: Cellular tumor antigen p53 (Homo sapiens) (UniProt P04637)
Sequence (P04637 whole entry, looked up): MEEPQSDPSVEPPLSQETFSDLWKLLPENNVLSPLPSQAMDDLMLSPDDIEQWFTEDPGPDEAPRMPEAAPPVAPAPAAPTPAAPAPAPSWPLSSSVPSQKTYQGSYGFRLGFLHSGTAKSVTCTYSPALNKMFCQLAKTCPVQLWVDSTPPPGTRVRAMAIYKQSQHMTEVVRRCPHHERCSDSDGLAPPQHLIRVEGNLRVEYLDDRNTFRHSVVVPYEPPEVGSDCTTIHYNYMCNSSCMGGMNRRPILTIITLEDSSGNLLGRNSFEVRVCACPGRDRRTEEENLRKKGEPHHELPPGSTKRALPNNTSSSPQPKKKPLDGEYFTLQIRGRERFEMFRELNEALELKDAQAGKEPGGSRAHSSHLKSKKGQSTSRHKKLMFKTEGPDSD
Assay: Primary qHTS for small molecule compounds that upregulate eGFP-tagged delta133p53alpha (in N-terminal) cells. (AID 2060322);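 note: cells pre-induced with doxycycline then dosed without doxycycline; 0% = DMSO vehicle and 100% = reference activator; nearly all actives have a fitted effect of over 75% in size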
Settings: NCI-H358 eGFP-delta133p53alpha fluorescence, 24 h; active compounds read high
Description: Assay Development and Screening Technology National Center for Advancing Translational Sciences (NCATS), National Institute of Health (NIH), Rockville, Maryland Cellular senescence (CS) is one of the hallmarks of aging and age-related diseases. […] Here we report the development and validation of a cell-based quantitative high throughput screening (qHTS) assay in 1,536-well format. […]
Inconclusive results are not listed.
Form field: activation (one value per entry).
Number only, in %; omit the unit.

Observe how each entry below is paired with its result.
{"COMPOUND": "Nc1nc(Cl)nc2c1ncn2[C@@H]1O[C@H](CO)[C@@H](O)[C@H]1F", "activation, %": -22.8}
{"COMPOUND": "N#Cc1ccc(-c2ccc(S(=O)(=O)Nc3cccc(N)n3)cc2)cc1", "activation, %": 2.86}
{"COMPOUND": "O=C1C(O)=C(O)C(=O)C(O)=C1O", "activation, %": -14.1}
{"COMPOUND": "CN1CCN(c2c(F)cc3c(=O)c(C(=O)O)cn4c3c2OCN4C)CC1", "activation, %": -9.21}

# next compound below
Known value: Cellular tumor antigen p53 (Homo sapiens) (UniProt P04637) activation of the compound C=C(CO[C@@H]1O[C@H](CO[C@@H]2OC[C@](O)(CO)[C@H]2O)[C@@H](O)[C@H](O)[C@H]1O)C1Cc2cc(C(C)=O)ccc2O1 (stereo not given in full) equals -12.2

* * *

Assay: BET inhibitor-based combinations targeting novel dependencies in MECOM-rearranged (r) AML: UCSD-AML1 cell line (AID 2202235); note: nearly all actives have a fitted effect of over 40% in size
Details: UCSD-AML1 AML cells viability, CellTiter-Glo, 48 h; series mostly up to 46 µM
Inconclusive results are not listed. Calls of active or inactive are those of the source. Calls come from the whole dose curve; as a rule, active = well fitted inhibition curve with a large enough effect; inconclusive = small, poorly fitted or top-dose-only effect; inactive = no such curve, though single readings can be large or run the other way.
Choose one outcome from this list and give only that: 1 (yes) for active, 0 (no) for inactive

{"COMPOUND": "CCOC(=O)[C@H](CCc1ccccc1)N[C@@H](C)C(=O)N1[C@H](C(=O)O)C[C@@H]2CCC[C@@H]21", "LABEL_CLASS": "0 (no)"}
{"COMPOUND": "COc1ccc(-n2c(C)c([N+](=O)[O-])c3ccc(O)cc32)cc1", "LABEL_CLASS": "0 (no)"}
{"COMPOUND": "O=C1NC(=O)/C(=C/c2ccc3nccnc3c2)S1", "LABEL_CLASS": "0 (no)"}

Q: How did this test come out for CS(=O)(=O)N1CCN(Cc2cc3nc(-c4cccc5[nH]ncc45)nc(N4CCOCC4)c3s2)CC1 ?
Result: 1 (yes)

Q: How did this test come out for CCc1ccc(OCc2ccccc2C(=O)Nc2ccc3nc(C)cc(N)c3c2)cc1 ?
Result: 1 (yes)

Q: How did this test come out for CN1CCN(c2ccc(-c3cccc(CN4CCOCC4)c3)cc2NC(=O)c2c[nH]c(=O)cc2C(F)(F)F)CC1 ?
Result: 0 (no)

Q: How did this test come out for CN1CCN(Cc2ccc(NC(=O)Nc3ccc(Oc4cc(NC(=O)C5CC5)ncn4)cc3)cc2C(F)(F)F)CC1 ?
Result: 1 (yes)

Q: How did this test come out for C[C@H](CCC(=O)O)[C@H]1CCC2C3C[C@H](O)[C@@H]4C[C@H](O)CC[C@]4(C)C3CC[C@@]21C (stereo not given in full) ?
Result: 0 (no)

Q: How did this test come out for COc1cccc2c1c(O)c(C(=O)N(C)c1ccc(C(F)(F)F)cc1)c(=O)n2C ?
Result: 0 (no)

Q: How did this test come out for Cc1ccc(S(=O)(=O)Nc2nc3ccccc3nc2Nc2ccc3nsnc3c2)cc1 ?
Result: 0 (no)

Q: How did this test come out for Cc1ccc(NC(=O)C2(c3ccc4c(c3)OC(F)(F)O4)CC2)nc1-c1cccc(C(=O)O)c1 ?
Result: 0 (no)

* * *

Target: Retinal dehydrogenase 2 (Homo sapiens) (UniProt O94788)
Assay: qHTS for Inhibitors of the Aldehyde Dehydrogenase Family (ALDH1A2) Confirmation screens (AID 2061314); note: nearly all actives have a fitted effect of over 65% in size
Details: ALDH1A2 enzyme inhibition qHTS confirmation; series mostly up to 45.9 µM
Results filed as inconclusive are left out. Activity calls are given as the source filed them. Calls follow the shape of the dose curve; as a rule, active = well fitted inhibition curve with a large enough effect; inconclusive = small, poorly fitted or top-dose-only effect; inactive = no such curve, though single readings can be large or run the other way.
Choose one outcome from this list and give only that: active, inactive

See these solved cases before continuing.
{"MOLECULE": "COc1ccc(CCO[C@@H]2O[C@H](CO[C@H]3OC[C@](O)(CO)[C@H]3O)[C@@H](OC(=O)/C=C/c3ccc(O)c(O)c3)[C@H](O[C@@H]3O[C@@H](C)[C@H](O)[C@@H](O)[C@H]3O)[C@H]2O)cc1OC", "LABEL_CLASS": "inactive"}
{"MOLECULE": "O=C(O)c1ccc(-n2cccc2/C=C2\\SC(=O)N(Cc3ccccc3Cl)C2=O)cc1", "LABEL_CLASS": "active"}

Q: How did this test come out for COc1cccc(-c2ccc(CN3CCCC(NC(=O)Nc4ccccc4)C3)cc2)c1 (centres undefined) ?
Result: inactive

Q: How did this test come out for CO/N=C(/C(=O)N[C@@H]1C(=O)N2C(C(=O)O)=C(Cn3ccc(=N)n3CCO)CS[C@H]12)c1csc(N)n1 ?
Result: inactive

Q: How did this test come out for Cc1ccc(OCCn2c(CCNC(=O)c3cccc(N)c3)nc3ccccc32)cc1 ?
Result: inactive

Q: How did this test come out for CN(C)c1cc2c(Nc3ccc4c(cnn4Cc4ccccc4)c3)ncnc2cn1 ?
Result: active

Q: How did this test come out for Cc1nc(C)c(-c2ccc3ncnc(NCc4ncc[nH]4)c3c2)s1 ?
Result: inactive

Q: How did this test come out for Cn1cc(Nc2cnccc2C(=O)O)c2cccnc21 ?
Result: inactive

Q: How did this test come out for O=C1NC(=O)C(c2cnc3ccccn23)=C1c1cn2c3c(cccc13)CN(C(=O)N1CCOCC1)CC2 ?
Result: inactive

* * *

Biological target: Cellular tumor antigen p53 (Homo sapiens)
Assay: Primary qHTS for small molecule compounds that upregulate eGFP-tagged delta133p53alpha (in N-terminal) cells. (AID 2060322);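 note: cells pre-induced with doxycycline then dosed without doxycycline; 0% = DMSO vehicle and 100% = reference activator; nearly all actives have a fitted effect of over 75% in size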
Details: NCI-H358 eGFP-delta133p53alpha fluorescence, 24 h; active compounds read high
Inconclusive results are not listed.
METRIC: activation (%)
Number only, in %; omit the unit.

{"MOLECULE": "Cc1c(C(=O)O)c(O)cc2c1C(=O)c1c(O)c([C@@H]3O[C@H](CO)[C@@H](O)[C@H](O)[C@H]3O)c(O)c(O)c1C2=O", "activation, %": -4.18}

Looking up CC(O)/C=C/C1C(C)C(O[C@@H]2O[C@H](CO)[C@@H](O)[C@H](O)[C@H]2O)C(O)CC1(C)C (stereo partly drawn) , I see its activation listed as 12.2

Looking up COc1c(C(CC(C)C)OC(C)=O)ccc(Oc2c(O)cc(C)cc2/C=C/C(C)=O)c1C(=O)O (stereo not drawn) , I see its activation listed as -25.2

Looking up CC(C)=CCC[C@@](C)(O)[C@H]1CC=C(C)CC1 , I see its activation listed as 18.6

Looking up CCOC(=O)N1CCC(CN(Cc2ccc(Cl)cc2)Cc2ccc([N+](=O)[O-])s2)C1 (stereo not drawn) , I see its activation listed as 6.21

Looking up C[C@@H]1O[C@@H](O[C@H]2[C@@H]3C=CO[C@@H](O[C@@H]4O[C@H](CO)[C@@H](O)[C@H](O)[C@H]4O)[C@@H]3[C@@]3(CO)O[C@@H]23)[C@H](OC(=O)/C=C/c2ccccc2)[C@H](O)[C@H]1O , I see its activation listed as 4.46

Looking up C[C@H]1COc2c(N3CCN(C)CC3)c(F)cc3c(=O)c(C(=O)O)cn1c23 , I see its activation listed as -12.8

Looking up CC1(C)O[C@@H]2[C@@H](CO[C@@]3(COS(N)(=O)=O)OC(C)(C)O[C@@H]23)O1 , I see its activation listed as -2.51
